B1: library; a variant is named by its letters at N, in order (parent)
chain: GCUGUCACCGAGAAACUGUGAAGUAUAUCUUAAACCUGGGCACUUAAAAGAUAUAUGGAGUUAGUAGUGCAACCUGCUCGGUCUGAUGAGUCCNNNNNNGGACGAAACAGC

- Variants of: B1
- method: normalized RNA/DNA level with ligand (relative to sTRSVctl = 100) (log10 (% of sTRSVctl)); HEK293T; ligand: cyclic di-GMP (c-di-GMP-II aptamer); ligand concentration (+) RNA-Seq: 1 mM; higher = less ribozyme self-cleavage, higher mRNA level
- test-parameters: reporter: mCherry (pCS4076), ligand present: yes
Reported normalized RNA/DNA level with ligand (log10) values are given for each entry in this list.
Returns: the value as a bare number; no unit string appended.

Here is how some variants turned out for normalized RNA/DNA level with ligand (log10).
1. UUCUCA: 1.9
2. AGAAGU: 1.75
3. GUCCCU: 1.92
4. CACUAC: 1.77
5. CGGGGU: 1.83

Prompt: Report measured normalized RNA/DNA level with ligand (log10); entry is GGGGUA
Completion: 1.62

Prompt: Identify normalized RNA/DNA level with ligand (log10) associated with the variant GACGUU
Completion: 1.81

Prompt: State, in one line, measured normalized RNA/DNA level with ligand (log10) of UGGACU
Completion: 1.86

Prompt: State its normalized RNA/DNA level with ligand (log10): CUCUAG
Completion: 1.83

Prompt: Supply recorded normalized RNA/DNA level with ligand (log10) for CGCAAA here.
Completion: 1.47

Prompt: Please list normalized RNA/DNA level with ligand (log10) recorded for the variant GGCAAA
Completion: 1.65
